assay: Solubility in sodium phosphate buffer (0.1 M, pH 7.4) at 25 degrees C was determined; details: sodium phosphate buffer
metric_name: solubility (µg/mL)
Please reply with the bare figure in µg/mL and do not write the unit itself.

Here is how some compounds turned out for solubility.
chemical_string | metric_name | measured_result
CCCCCCCCCCNC(=O)NC12CC3CC(CC(C3)C1)C2 | solubility | 0.62
COC(=O)CCCNC(=O)NC12CC3CC(CC(C3)C1)C2 | solubility | 1.6
CCCCCOC(=O)CCCNC(=O)NC12CC3CC(CC(C3)C1)C2 | solubility | 1.69

From here, focus on the item given below.
For reference, reported solubility for O=C(O)CCCNC(=O)NC12CC3CC(CC(C3)C1)C2 stands at 7.06

Every entry's value here was drawn from ChEMBL document CHEMBL1149149.
